# target: Kappa-type opioid receptor (Homo sapiens)
# Sequence (P41145 whole entry): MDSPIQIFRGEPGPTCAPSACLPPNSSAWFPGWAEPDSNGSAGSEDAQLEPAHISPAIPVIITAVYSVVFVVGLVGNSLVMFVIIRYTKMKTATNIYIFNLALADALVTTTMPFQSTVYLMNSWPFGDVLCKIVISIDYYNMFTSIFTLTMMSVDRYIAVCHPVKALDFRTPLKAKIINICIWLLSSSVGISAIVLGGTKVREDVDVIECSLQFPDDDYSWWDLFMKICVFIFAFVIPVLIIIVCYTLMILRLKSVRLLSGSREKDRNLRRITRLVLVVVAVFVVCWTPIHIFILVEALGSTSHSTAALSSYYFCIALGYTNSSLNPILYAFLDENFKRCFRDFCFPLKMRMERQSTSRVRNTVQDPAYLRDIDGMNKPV
# Type: functional
measurementLabel: EC50 (µM)

1. Cc1ccc(C)c(N2CCN(C(=O)C(Cc3ccccc3)n3cccc3)CC2)c1 (stereo unspecified) : 10.5

---

Listing of recorded IC50 by entry.
# target: Calpain-2 catalytic subunit (Sus scrofa, UniProt P43367)
# Sequence (P43367 whole entry): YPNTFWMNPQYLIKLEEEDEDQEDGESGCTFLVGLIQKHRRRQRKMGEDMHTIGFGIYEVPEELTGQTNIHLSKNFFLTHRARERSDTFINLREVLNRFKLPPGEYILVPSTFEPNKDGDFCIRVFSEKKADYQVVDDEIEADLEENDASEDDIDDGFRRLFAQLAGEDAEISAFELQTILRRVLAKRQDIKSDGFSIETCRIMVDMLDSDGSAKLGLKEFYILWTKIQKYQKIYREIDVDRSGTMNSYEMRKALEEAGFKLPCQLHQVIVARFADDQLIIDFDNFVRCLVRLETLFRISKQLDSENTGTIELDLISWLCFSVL
# runDescription: pig calpain II inhibitor potency, dose response, biochemical, fluorogenic peptide substrate (AID 1420)
# Assay type: functional
measurementLabel: IC50

1. CNC(=O)NC(=O)C(C)Oc1ccccc1F (stereo not drawn) : < 0.4 µM (not active)
2. CC(C)CCN(C(=S)NC(=O)C1CCCCC1)c1c(N)n(Cc2ccccc2)c(=O)[nH]c1=O : > 50 µM (not active)
3. CCOC(=O)N1CCN(c2ccc([N+](=O)[O-])cc2)CC1 : 30.7 µM (not active)

---

# runDescription: Luminescence Cell-Based Dose Confirmation HTS to Identify Inhibitors of Platelet Dense Granule Release. [Related pubchem assays: 1663 (Primary HTS), 1678 (Summary of Project)]
# Type: functional
Activity calls are given as the source filed them.
measurementLabel: EC50

1) Cc1ccc(NC(=O)CC2SC(=O)N(c3ccccc3)C2=O)cc1 (configuration not stated) : 109 µM (active)
2) CC(C)CNC(=O)COc1ccccc1[N+](=O)[O-] : 18.7 µM (active)
3) COc1cccc(-c2noc(C3CCCN(C(=O)c4ccccc4OC)C3)n2)c1 (configuration not stated) : > 112 µM (not active)
4) COc1ccc(-c2cc3ccc(O)cc3oc2=O)cc1OC : 0.335 µM (active)
5) COC(=O)C1(C)CN(S(=O)(=O)c2ccc(C)cc2)c2cc(OC)ccc2C1=O (configuration not stated) : > 112 µM (not active)
6) O=C(NCCc1csc(-c2cccnc2)n1)c1cccs1 : > 112 µM (not active)
7) Nc1nnc(SCc2ccc(Cl)cc2)s1 : > 112 µM (not active)

---

# target: 26S proteasome non-ATPase regulatory subunit 14 (Homo sapiens, UniProt O00487)
# Sequence (O00487 whole entry): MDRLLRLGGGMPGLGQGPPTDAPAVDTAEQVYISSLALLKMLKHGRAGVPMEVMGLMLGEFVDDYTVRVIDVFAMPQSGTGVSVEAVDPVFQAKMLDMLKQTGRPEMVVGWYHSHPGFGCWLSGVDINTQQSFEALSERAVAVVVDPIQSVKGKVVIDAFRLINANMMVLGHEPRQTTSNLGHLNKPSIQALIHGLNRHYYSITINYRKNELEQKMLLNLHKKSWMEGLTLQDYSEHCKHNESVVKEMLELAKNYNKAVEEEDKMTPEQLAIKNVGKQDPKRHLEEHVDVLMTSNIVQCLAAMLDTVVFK
# runDescription: inhibition of proteasome subunit RPN11 – biochemical, fluorescence polarization, uHTS hits, confirmation (AID 602368)
# Assay type: functional
Calls of active or inactive are those of the source.
Below is a list of entries, each paired with its recorded IC50 value.
measurementLabel: IC50

1. CCc1ccc(NC(=O)C2CCN(S(=O)(=O)c3ccc4c(c3)NC(=O)C(C)S4)CC2)cc1 (centres undefined) : 31.8 µM (active)
2. Cc1ccc(CSc2nnc(SCC(=O)N/N=C/c3c[nH]c4ccccc34)s2)cc1 : 6.88 µM (active)
3. CCOc1ccc2nc(NC3=NC(=O)CC(c4ccc(OC)cc4)N3)nc(C)c2c1 (centres undefined) : 22 µM (active)
4. Cc1cc(C)c2c(N)c3cccc(C)c3nc2n1 : 13.1 µM (active)

---

# target: Cytochrome P450 3A4 (Homo sapiens, UniProt P08684);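 also: CYP3A4 tested as one member of a cytochrome P450 panel screen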
# Sequence (P08684 whole entry): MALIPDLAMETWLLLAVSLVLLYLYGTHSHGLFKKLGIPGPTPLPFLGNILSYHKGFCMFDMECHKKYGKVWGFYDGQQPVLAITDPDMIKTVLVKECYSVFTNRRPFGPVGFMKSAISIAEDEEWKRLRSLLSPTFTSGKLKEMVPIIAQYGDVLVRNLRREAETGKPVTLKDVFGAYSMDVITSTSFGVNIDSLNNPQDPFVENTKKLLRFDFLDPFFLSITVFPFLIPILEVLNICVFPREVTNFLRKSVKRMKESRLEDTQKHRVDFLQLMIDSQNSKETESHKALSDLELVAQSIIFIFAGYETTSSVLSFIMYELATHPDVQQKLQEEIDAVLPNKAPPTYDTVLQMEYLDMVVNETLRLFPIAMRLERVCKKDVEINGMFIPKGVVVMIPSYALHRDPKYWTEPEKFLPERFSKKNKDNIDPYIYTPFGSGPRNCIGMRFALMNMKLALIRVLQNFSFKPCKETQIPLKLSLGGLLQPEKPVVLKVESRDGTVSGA
Listed compounds paired with reported AC50
measurementLabel: AC50

1) O=C(O)c1cc2c(cc1S(=O)(=O)O)[C@H]1[C@@H](C3[C@H]2[C@@]2(Cl)C(Cl)=C(Cl)[C@@]3(Cl)C2(Cl)Cl)[C@]2(Cl)C(Cl)=C(Cl)[C@]1(Cl)C2(Cl)Cl (stereo partly drawn) : 3.16 µM (inconclusive)
2) O=C(CCOc1ccccc1)Nc1ccccc1 : 22.4 µM (inconclusive)
3) COc1ccc(C(=O)C2=C(O)C(=O)N(c3cc(C)on3)C2c2ccc(OC)c(OC)c2)cc1OC (stereo not drawn) : 22.4 µM (inconclusive)

Recorded values, source ChEMBL document CHEMBL1201862.
